test system: F1*sub RNA substrate (template-directed ligation); experiment: fraction ligated after 30 min (ligated reads / total reads); higher = more ligase activity; sequences stand for … in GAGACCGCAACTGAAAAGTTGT…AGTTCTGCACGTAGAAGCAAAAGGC; settings: 42 °C
RECORDED ENDPOINT: fraction ligated

record_sequence="TATCACTTGTCGTAAGACCTTTGATGGGTTG [3d2195]" test_target="F1*sub RNA substrate (template-directed ligation)" recorded_value=0.513
record_sequence="TTCACTTGTCGTAAGAACTTTGGAGGGTTGA [3d466]" test_target="F1*sub RNA substrate (template-directed ligation)" recorded_value=0.0901
record_sequence="TATCACTGTCTAAGACACTTTGATGGGTTGA [3d1366]" test_target="F1*sub RNA substrate (template-directed ligation)" recorded_value=0.77
record_sequence="TATCATTGTCTAAGCACTTTGGATGGGTTGA [3d1190]" test_target="F1*sub RNA substrate (template-directed ligation)" recorded_value=0.765
record_sequence="TTCACTTGTCGTAAGACCTTTGATGGGTTGA [3d471]" test_target="F1*sub RNA substrate (template-directed ligation)" recorded_value=0.164
record_sequence="TATCCTTCGTAAGACACTTTGGATGGGTTGA [3d950]" test_target="F1*sub RNA substrate (template-directed ligation)" recorded_value=0.798
record_sequence="TACACTGTCGAAGACACTTTGGATGGGTTGA [3d571]" test_target="F1*sub RNA substrate (template-directed ligation)" recorded_value=0.346
record_sequence="TATCATTGCGTAAGACACTTTGATGGGTTGA [3d1166]" test_target="F1*sub RNA substrate (template-directed ligation)" recorded_value=0.681

###

test system: F1*sub RNA substrate (template-directed ligation); assay: fraction ligated after 30 min (ligated reads / total reads); higher = more ligase activity; sequences stand for … in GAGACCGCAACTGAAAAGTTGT…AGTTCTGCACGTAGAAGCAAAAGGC; conditions: 42 °C
RECORDED ENDPOINT: fraction ligated

record_sequence="TATACTTGTCTAAGACACTTTGGATGGGTTGA [2d75]" recorded_endpoint="fraction ligated" recorded_value=0.797
record_sequence="TATCACTTGCGTAAACACTTTGGATGGGTTA [3d1647]" recorded_endpoint="fraction ligated" recorded_value=0.777
record_sequence="TATCACTTGTGTAAGACACTTTGGATGGTTA [3d1806]" recorded_endpoint="fraction ligated" recorded_value=0.101

###

test system: F1*sub RNA substrate (template-directed ligation); experiment: fraction ligated after 30 min (ligated reads / total reads); higher = more ligase activity; sequences stand for … in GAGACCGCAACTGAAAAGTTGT…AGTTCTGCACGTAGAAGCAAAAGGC; conditions: 42 °C
Record yes (1) whenever fraction ligated is at 0.1 or higher; record no (0) when lower.

record_sequence="ATCACTTGTCGTAAACACTTTGGAGGGTTGA [3d217]" test_target="F1*sub RNA substrate (template-directed ligation)" assigned_category="no (0)"
record_sequence="ATCACTGTCGTAAGACACTTTGGTGGGTTGA [3d119]" test_target="F1*sub RNA substrate (template-directed ligation)" assigned_category="yes (1)"
record_sequence="TATCATTGTCGTAAGACACTTTGGGGGTTGA [3d1282]" test_target="F1*sub RNA substrate (template-directed ligation)" assigned_category="no (0)"
record_sequence="TATCACTTCGTAAGACACTTTGGATGGGTTA [3d1325]" test_target="F1*sub RNA substrate (template-directed ligation)" assigned_category="yes (1)"
record_sequence="ACACTTGTCGTAAGACACTTTGGAGGGTTGA [3d42]" test_target="F1*sub RNA substrate (template-directed ligation)" assigned_category="yes (1)"
record_sequence="TATACTTTCGTAGACACTTTGGATGGGTTGA [3d799]" test_target="F1*sub RNA substrate (template-directed ligation)" assigned_category="yes (1)"
record_sequence="TATATTGTCGTAAGACACTTTGATGGGTTGA [3d771]" test_target="F1*sub RNA substrate (template-directed ligation)" assigned_category="yes (1)"
record_sequence="TATCACTTGTCGAAGACCTTTGGAGGGTTGA [3d1946]" test_target="F1*sub RNA substrate (template-directed ligation)" assigned_category="yes (1)"
record_sequence="TATCACTTGTCTAAGCACTTGGATGGGTTGA [3d1849]" test_target="F1*sub RNA substrate (template-directed ligation)" assigned_category="yes (1)"
record_sequence="TATACTTGTCGTAGACACTTTGGATGGGTTGA [2d77]" test_target="F1*sub RNA substrate (template-directed ligation)" assigned_category="yes (1)"
record_sequence="TATACTTGTCGAAACACTTTGGATGGGTTGA [3d858]" test_target="F1*sub RNA substrate (template-directed ligation)" assigned_category="yes (1)"
record_sequence="TATCACTTTCGTAAACACTTGGATGGGTTGA [3d1522]" test_target="F1*sub RNA substrate (template-directed ligation)" assigned_category="yes (1)"
record_sequence="TATCACTTGTCGTAAGACATTTGGATGGTTG [3d2228]" test_target="F1*sub RNA substrate (template-directed ligation)" assigned_category="no (0)"
record_sequence="TTCACTTGTCGTAAGACACTTTGGGGGTTGA [3d497]" test_target="F1*sub RNA substrate (template-directed ligation)" assigned_category="no (0)"
record_sequence="TATCACTTGTCGTAAGAACTTTGGTGGGTTG [3d2175]" test_target="F1*sub RNA substrate (template-directed ligation)" assigned_category="no (0)"
record_sequence="TATCACTTGTCGAAGACACTTTGGAGGGTTG [3d1976]" test_target="F1*sub RNA substrate (template-directed ligation)" assigned_category="no (0)"
record_sequence="TATACTTGTCGTAGACACTTGGATGGGTTGA [3d876]" test_target="F1*sub RNA substrate (template-directed ligation)" assigned_category="yes (1)"
record_sequence="TATCACTTGTCGTAAACACTTTGGTGGGTTG [3d2097]" test_target="F1*sub RNA substrate (template-directed ligation)" assigned_category="no (0)"
record_sequence="ATCACTTGTCGTAAGACACTTTGGTGGGTTGA [2d20]" test_target="F1*sub RNA substrate (template-directed ligation)" assigned_category="no (0)"
record_sequence="TATCACTTGTCTAGACACTTTGGATGGGTTA [3d1834]" test_target="F1*sub RNA substrate (template-directed ligation)" assigned_category="yes (1)"
record_sequence="TATCACTTTCGTAGACATTTGGATGGGTTGA [3d1511]" test_target="F1*sub RNA substrate (template-directed ligation)" assigned_category="yes (1)"
record_sequence="TATACTTGTCGTAAGACCTTTGGATGGGTTA [3d916]" test_target="F1*sub RNA substrate (template-directed ligation)" assigned_category="no (0)"
record_sequence="TACACTTTCGTAGACACTTTGGATGGGTTGA [3d588]" test_target="F1*sub RNA substrate (template-directed ligation)" assigned_category="no (0)"
record_sequence="TATACTTGTCTAGACACTTTGGATGGGTTGA [3d844]" test_target="F1*sub RNA substrate (template-directed ligation)" assigned_category="yes (1)"
record_sequence="TATCACTTGTCGTAAGACATTTGAGGGTTGA [3d2216]" test_target="F1*sub RNA substrate (template-directed ligation)" assigned_category="no (0)"
record_sequence="ATCACTTGTCGTAAGAACTTTGATGGGTTGA [3d233]" test_target="F1*sub RNA substrate (template-directed ligation)" assigned_category="yes (1)"
record_sequence="ATCACTTGTCGTAAGACACTTTGGATGGTTG [3d274]" test_target="F1*sub RNA substrate (template-directed ligation)" assigned_category="yes (1)"
record_sequence="TACACTTGTCGTAGACACTTTGGAGGGTTGA [3d668]" test_target="F1*sub RNA substrate (template-directed ligation)" assigned_category="yes (1)"
record_sequence="TATACTTGTCTAAGACATTTGGATGGGTTGA [3d849]" test_target="F1*sub RNA substrate (template-directed ligation)" assigned_category="yes (1)"
record_sequence="TATCACTGTGTAAGACACTTTGGAGGGTTGA [3d1354]" test_target="F1*sub RNA substrate (template-directed ligation)" assigned_category="no (0)"
record_sequence="TATCATTGTCGTAAGACCTTTGATGGGTTGA [3d1256]" test_target="F1*sub RNA substrate (template-directed ligation)" assigned_category="yes (1)"
record_sequence="TTCACTTGTCGTAGCACTTTGGATGGGTTGA [3d431]" test_target="F1*sub RNA substrate (template-directed ligation)" assigned_category="yes (1)"
record_sequence="TATCACTTGTGTAAACACTTTGGATGGGTTG [3d1753]" test_target="F1*sub RNA substrate (template-directed ligation)" assigned_category="yes (1)"
record_sequence="TATCACTTGTCGTAAGCATTTGATGGGTTGA [3d2122]" test_target="F1*sub RNA substrate (template-directed ligation)" assigned_category="yes (1)"
record_sequence="ATCACTTGTGTAAGACACTTTGGATGGGTTGA [2d9]" test_target="F1*sub RNA substrate (template-directed ligation)" assigned_category="yes (1)"
record_sequence="TTCACTTGTCGTAAGAACTTTGGATGGGTTGA [2d37]" test_target="F1*sub RNA substrate (template-directed ligation)" assigned_category="yes (1)"
record_sequence="ATCACTTGTCGTAAGACACTTGGATGGGTTA [3d258]" test_target="F1*sub RNA substrate (template-directed ligation)" assigned_category="yes (1)"
record_sequence="TACACTTTCGTAAGACACTTGGATGGGTTGA [3d594]" test_target="F1*sub RNA substrate (template-directed ligation)" assigned_category="no (0)"
record_sequence="TATCATTGTCGTAAGACACTTTGGATGGTTGA [2d125]" test_target="F1*sub RNA substrate (template-directed ligation)" assigned_category="yes (1)"
record_sequence="TATACTTGTCGTAAACACTTTGGATGGGTTA [3d891]" test_target="F1*sub RNA substrate (template-directed ligation)" assigned_category="no (0)"
record_sequence="TATCACTTGTCGTAAGAACTTTGGTGGGTTGA [2d257]" test_target="F1*sub RNA substrate (template-directed ligation)" assigned_category="yes (1)"

Cited source for all entries: the supplement of paper PMC6755084
